# System: NCI-H226 lung
# assay: NCI-60 one-dose screen, 48 h (100 = growth as untreated, 0 = no growth, -100 = all killed)
# assay-context: 10 µM unless noted
Compounds without any hit were thinned out: in the full panel of roughly 83,000, 20% have a hit.
We label by threshold. Values of growth strictly beneath 90% are TRUE. Values of 90% and up are FALSE.

molecule | category-label
Cc1c(C(N)=O)sc2ncn(CC(=O)Nc3ccc(Cl)cc3)c(=O)c12 | FALSE
CCCCCCCCCCCCCCCCN=C(CC(=O)O)C(=O)O | FALSE
COc1ccc(C2=NN(C(=O)c3cc(OC)c(OC)c(OC)c3)C(c3ccc(C#N)cc3)C2)cc1OC (stereo not given) | TRUE
